TARGET_ENTITY: human PPARα ligand-binding domain (Gal4 chimera) (Homo sapiens, UniProt Q07869)
Construct: coding for the hinge region and LBD of the canonical isoform of the respective nuclear receptor; expressed in transfected cells; host or cells: HEK293T
Sequence (Q07869 239-466 limits assumed, change not shown): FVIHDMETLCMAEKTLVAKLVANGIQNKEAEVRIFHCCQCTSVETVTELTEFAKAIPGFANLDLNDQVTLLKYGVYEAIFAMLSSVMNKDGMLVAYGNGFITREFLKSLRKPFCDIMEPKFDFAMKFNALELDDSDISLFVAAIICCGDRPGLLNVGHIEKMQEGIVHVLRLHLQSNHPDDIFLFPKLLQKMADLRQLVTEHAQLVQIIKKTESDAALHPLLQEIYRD
TEST_SUMMARY: Gal4 hybrid reporter gene assay, PPARα
Format: cell-based
Parameters: dose or concentration left out as unconfirmed
EXPERIMENTAL_PARAMETERS: read-out: max. rel. act. PPARα
Bucketed by reported Emax, buckets being low: < 30%; medium: ≥ 30% and < 40%; high: ≥ 40%

Examples from the recorded data:
- CC(C)(C)c1ccc(C(=O)Nc2cccc(CCC(=O)O)c2)c(NC(=O)c2ccc3ccccc3c2)c1 [compound 24]: high
- O=C(O)CCc1cccc(NC(=O)c2ccccc2NC(=O)c2ccc3ccccc3c2)c1 [compound 9]: medium
- O=C(O)CCc1cccc(NC(=O)c2cc(O)ccc2NC(=O)c2ccc3ccccc3c2)c1 [compound 26]: low
- COc1ccc(NC(=O)c2ccc3ccccc3c2)c(C(=O)Nc2cccc(CCC(=O)O)c2)c1 [compound 27]: high
- Cc1cccc(C(=O)Nc2cccc(CCC(=O)O)c2)c1NC(=O)c1ccc2ccccc2c1 [compound 16]: medium
- O=C(O)CCc1cccc(NC(=O)c2ccc(O)cc2NC(=O)c2ccc3ccccc3c2)c1 [compound 21]: high

Request: Into which bin does this compound go? COc1ccc(C(=O)Nc2cccc(CCC(=O)O)c2)c(NC(=O)c2ccc3ccccc3c2)c1 [compound 22]
Response: high

Request: Class (by measured Emax) for Cc1ccc(NC(=O)c2ccc3ccccc3c2)c(C(=O)Nc2cccc(CCC(=O)O)c2)c1 [compound 18]
Response: low

Request: Which Emax band matches CC(C)(C)c1ccc(C(=O)Nc2cccc(CCC(=O)O)c2)c(NC(=O)c2ccc(-c3ccco3)cc2)c1 [compound 41] ?
Response: high

Request: Band assignment needed for O=C(O)Cc1cccc(NC(=O)c2ccccc2NC(=O)c2ccc3ccccc3c2)c1 [compound 5] please.
Response: medium

* * *

Examples of molecules with documented Emax follow.
TARGET_ENTITY: human FXR:retinoid X receptor (RXR) heterodimer (Homo sapiens, UniProt Q96RI1)
Construct: pcDNA3-hFXR[32] and pSG5-hRXR[33] served for receptor overexpression in the full-length FXR assay; expressed in transfected cells; host or cells: HeLa
Sequence (P19793 whole entry): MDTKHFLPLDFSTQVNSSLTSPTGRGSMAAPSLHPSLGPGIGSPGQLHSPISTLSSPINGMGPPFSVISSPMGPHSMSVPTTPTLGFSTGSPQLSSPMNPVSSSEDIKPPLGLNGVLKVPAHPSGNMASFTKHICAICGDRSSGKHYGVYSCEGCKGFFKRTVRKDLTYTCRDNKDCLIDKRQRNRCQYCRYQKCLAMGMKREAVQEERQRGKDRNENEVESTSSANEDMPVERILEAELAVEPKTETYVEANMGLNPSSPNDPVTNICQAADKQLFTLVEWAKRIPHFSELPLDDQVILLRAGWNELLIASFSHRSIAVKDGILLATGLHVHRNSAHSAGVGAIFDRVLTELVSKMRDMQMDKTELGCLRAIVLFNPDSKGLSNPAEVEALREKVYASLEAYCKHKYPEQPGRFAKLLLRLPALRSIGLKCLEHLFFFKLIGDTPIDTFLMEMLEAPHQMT
Sequence (Q96RI1 whole entry): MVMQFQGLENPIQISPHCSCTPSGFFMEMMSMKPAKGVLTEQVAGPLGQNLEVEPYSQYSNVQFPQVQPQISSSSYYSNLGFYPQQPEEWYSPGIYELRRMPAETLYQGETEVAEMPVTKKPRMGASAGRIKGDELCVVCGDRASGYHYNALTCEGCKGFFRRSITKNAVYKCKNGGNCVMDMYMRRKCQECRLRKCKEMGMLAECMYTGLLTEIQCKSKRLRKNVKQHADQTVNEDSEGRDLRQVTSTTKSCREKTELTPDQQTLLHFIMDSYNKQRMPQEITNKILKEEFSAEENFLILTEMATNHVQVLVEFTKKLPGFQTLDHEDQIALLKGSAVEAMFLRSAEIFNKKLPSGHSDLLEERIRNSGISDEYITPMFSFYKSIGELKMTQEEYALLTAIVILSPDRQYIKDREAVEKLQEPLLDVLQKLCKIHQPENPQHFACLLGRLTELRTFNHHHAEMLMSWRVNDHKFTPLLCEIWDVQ
TEST_SUMMARY: Full-length FXR reporter gene assay (BSEP response element) in HeLa cells
Type: cell-based
Design: dose or concentration left out as unconfirmed
EXPERIMENTAL_PARAMETERS: HeLa, read-out: max. rel. act. FXR
Provide the reading as a plain figure in %.

* O=C(O)CCc1cccc(NC(=O)c2ccccc2NC(=O)c2ccc3ccccc3c2)c1 | 20
* O=C(O)Cc1cccc(NC(=O)c2ccccc2NC(=O)c2ccc3ccccc3c2)c1 | 21
* O=C(O)CCc1cccc(NC(=O)c2ccccc2NC(=O)c2ccc(-c3ccco3)cc2)c1 | 23
* O=C(O)CCc1cccc(NC(=O)c2cc(Cl)ccc2NC(=O)c2ccc3ccccc3c2)c1 | 12
* COc1ccc(C(=O)Nc2cccc(NCC(=O)O)c2)c(NC(=O)c2ccc(-c3ccoc3)cc2)c1 | 43
* COc1ccc(C(=O)Nc2cccc(CCC(=O)O)c2)c(NC(=O)c2ccc3ccccc3c2)c1 | 22
* O=C(O)CCc1cccc(NC(=O)c2ccccc2NC(=O)c2ccc(-c3cnco3)cc2)c1 | 53
* CC(C)(Nc1cccc(NC(=O)c2ccccc2NC(=O)c2ccc3ccccc3c2)c1)C(=O)O | 10

Request: Enter recorded Emax with human FXR:retinoid X receptor (RXR) heterodimer (Homo sapiens, UniProt Q96RI1) for O=C(O)CCc1cccc(NC(=O)c2ccccc2NC(=O)c2ccc(-c3ccccc3)cc2)c1 here.
Response: 33

Request: Consider the molecule O=C(O)CCc1cccc(NC(=O)c2ccc(O)cc2NC(=O)c2ccc3ccccc3c2)c1 tested on human FXR:retinoid X receptor (RXR) heterodimer (Homo sapiens, UniProt Q96RI1); state its Emax.
Response: 16

Request: Please respond with reported Emax (system human FXR:retinoid X receptor (RXR) heterodimer (Homo sapiens, UniProt Q96RI1)) for O=C(O)COc1cccc(NC(=O)c2ccccc2NC(=O)c2ccc3ccccc3c2)c1 .
Response: 19

* * *

TARGET_ENTITY: human FXR:retinoid X receptor (RXR) heterodimer (Homo sapiens)
Construct: pcDNA3-hFXR[32] and pSG5-hRXR[33] served for receptor overexpression in the full-length FXR assay; expressed in transfected cells; host or cells: HeLa
TEST_SUMMARY: Full-length FXR reporter gene assay (BSEP response element) in HeLa cells
Format: cell-based
EXPERIMENTAL_PARAMETERS: Supplementary Table 1, chromene derivatives; mean ± SEM, n ≥ 2; read-out: FXR EC50
Examples of molecules with documented pEC50 follow.
Formally, pEC50 is defined as -log10 of the concentration c, with c in mol/L.

- Cc1cccc2c1C=C(C(=O)Nc1ccccc1C(=O)Nc1cccc(CCC(=O)O)c1)CO2: 5.37
- Cc1ccc2c(c1)C=C(C(=O)Nc1ccccc1C(=O)Nc1cccc(CCC(=O)O)c1)CO2: 5.27
- O=C(O)CCc1cccc(NC(=O)c2ccccc2NC(=O)C2=Cc3ccccc3OC2)c1: 5.39

Request: Tell me its pEC50 given COc1cccc2c1OCC(C(=O)Nc1ccccc1C(=O)Nc1cccc(CCC(=O)O)c1)=C2 as the entry.
Response: 5.55

Request: // Input: O=C(O)CCc1cccc(NC(=O)c2ccccc2NC(=O)C2=C(Cl)c3ccccc3OC2)c1 . Output its pEC50 only.
Response: 4.96

* * *

TARGET_ENTITY: human PPARγ ligand-binding domain (Gal4 chimera) (Homo sapiens, UniProt P37231)
Construct: coding for the hinge region and LBD of the canonical isoform of the respective nuclear receptor; expressed in transfected cells; host or cells: HEK293T
Sequence (P37231 238-503 limits assumed): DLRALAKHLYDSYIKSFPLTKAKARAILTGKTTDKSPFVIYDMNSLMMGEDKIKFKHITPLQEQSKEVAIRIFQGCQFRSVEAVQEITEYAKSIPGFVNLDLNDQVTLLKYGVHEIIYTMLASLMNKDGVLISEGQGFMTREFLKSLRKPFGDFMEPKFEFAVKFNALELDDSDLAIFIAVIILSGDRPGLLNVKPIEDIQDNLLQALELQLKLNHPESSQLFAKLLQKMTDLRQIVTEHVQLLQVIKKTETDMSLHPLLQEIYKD
TEST_SUMMARY: Gal4 hybrid reporter gene assay, PPARγ
Assay type: cell-based
The entries below are paired with their reported pEC50.
Note on pEC50: it is the negative log10 of concentration, concentration in mol/L.

Some compounds with recorded pEC50:
* CC(C)(Nc1cccc(NC(=O)c2ccccc2NC(=O)c2ccc3ccccc3c2)c1)C(=O)O | 5.29
* O=C(O)CCc1cccc(NC(=O)c2ccccc2NC(=O)c2ccc3ccccc3c2)c1 | 5.59

Request: Using known records, supply pEC50 for O=C(O)CCc1cccc(NC(=O)c2ccccc2NC(=O)c2ccc(-c3ccon3)cc2)c1
Response: 5.24

Request: Input O=C(O)CCc1cccc(NC(=O)c2ccc(O)cc2NC(=O)c2ccc3ccccc3c2)c1 , output reported pEC50.
Response: 5.64

Request: Identify measured pEC50 associated with O=C(O)CCc1cccc(NC(=O)c2ccc(OC(F)(F)F)cc2NC(=O)c2ccc3ccccc3c2)c1
Response: 6.00

Request: Specify measured pEC50 for CC(C)(C)c1ccc(C(=O)Nc2cccc(CCC(=O)O)c2)c(NC(=O)c2ccc(-c3ccco3)cc2)c1 .
Response: 5.62

Request: Give pEC50 for the following compound: O=C(O)CCc1cccc(NC(=O)c2ccccc2NC(=O)c2ccc(-c3ccsc3)cc2)c1
Response: 5.89

Request: Check the records and state pEC50 for Cc1ccc(C(=O)Nc2cccc(CCC(=O)O)c2)c(NC(=O)c2ccc3ccccc3c2)c1
Response: 5.85

Request: Give reported pEC50 value for O=C(O)CCc1cccc(NC(=O)c2cc3c(cc2NC(=O)c2ccc4ccccc4c2)OCO3)c1
Response: 6.05

Request: Please indicate pEC50 recorded for COc1ccc(C(=O)Nc2cccc(CCC(=O)O)c2)c(NC(=O)c2ccc3ccccc3c2)c1
Response: 5.89

Request: Return pEC50 for the following compound: Cc1cccc(NC(=O)c2ccc3ccccc3c2)c1C(=O)Nc1cccc(CCC(=O)O)c1
Response: 4.96

Request: Complete the entry with pEC50 for O=C(O)CCc1cccc(NC(=O)c2ccccc2NC(=O)c2ccc(-c3cccs3)cc2)c1
Response: 5.85

Request: Tell me pEC50 reported for O=C(O)CCc1cccc(NC(=O)c2ccc(Cl)cc2NC(=O)c2ccc3ccccc3c2)c1
Response: 5.85

Request: Return the recorded pEC50 value; entry: COc1ccc(NC(=O)c2ccc3ccccc3c2)c(C(=O)Nc2cccc(CCC(=O)O)c2)c1
Response: 5.70

Request: Given O=C(O)CCc1cccc(NC(=O)c2cc(O)ccc2NC(=O)c2ccc3ccccc3c2)c1 , respond with its pEC50.
Response: 4.89

Request: Indicate its recorded pEC50; the compound in question is CC(C)(C)c1ccc(C(=O)Nc2cccc(CCC(=O)O)c2)c(NC(=O)c2ccc3ccccc3c2)c1
Response: 5.82

Request: Read the entry O=C(O)CCc1cccc(NC(=O)c2ccccc2NC(=O)c2ccc(-c3ccoc3)cc2)c1 and write its reported pEC50.
Response: 5.38

Request: Retrieve pEC50 measured for O=C(O)Cc1cccc(NC(=O)c2ccccc2NC(=O)c2ccc3ccccc3c2)c1 and print it.
Response: 4.80
